System name: Urease subunit alpha/Urease subunit beta (Helicobacter pylori (strain ATCC 700392 / 26695) (Campylobacterpylori), UniProt P69996)
Sequence (P69996 whole entry): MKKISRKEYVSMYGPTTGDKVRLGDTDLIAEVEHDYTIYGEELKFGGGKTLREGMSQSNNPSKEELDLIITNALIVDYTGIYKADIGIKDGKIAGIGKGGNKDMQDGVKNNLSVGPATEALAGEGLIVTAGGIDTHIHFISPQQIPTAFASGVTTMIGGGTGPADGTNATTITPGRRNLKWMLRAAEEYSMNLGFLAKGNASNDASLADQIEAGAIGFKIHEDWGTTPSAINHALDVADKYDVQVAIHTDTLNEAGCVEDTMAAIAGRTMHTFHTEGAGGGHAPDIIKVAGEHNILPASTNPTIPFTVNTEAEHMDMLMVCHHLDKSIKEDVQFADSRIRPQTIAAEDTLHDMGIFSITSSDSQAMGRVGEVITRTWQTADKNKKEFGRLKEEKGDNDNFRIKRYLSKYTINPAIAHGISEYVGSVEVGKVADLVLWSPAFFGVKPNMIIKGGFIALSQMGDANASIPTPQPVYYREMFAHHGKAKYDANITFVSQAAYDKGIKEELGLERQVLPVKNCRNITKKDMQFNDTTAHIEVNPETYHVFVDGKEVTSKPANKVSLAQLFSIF
Sequence (P14916 whole entry, further chain): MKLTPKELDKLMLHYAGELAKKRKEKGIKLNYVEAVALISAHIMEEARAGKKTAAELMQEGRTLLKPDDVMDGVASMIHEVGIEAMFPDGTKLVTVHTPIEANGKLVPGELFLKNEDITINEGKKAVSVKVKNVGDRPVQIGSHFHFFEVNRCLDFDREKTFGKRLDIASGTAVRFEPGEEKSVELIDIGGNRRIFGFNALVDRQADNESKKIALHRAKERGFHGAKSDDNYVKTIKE
Assay details: Inhibition of Helicobacter pylori urease using urea as substrate assessed as decrease in ammonia production incubated for 0.5 hrs by indole phenol method
Format: protein-complex assay
Measurement kind: IC50 (µM)

Q. What value of IC50 has been recorded for this entry: CCc1ccccc1NCC(O)c1n[nH]c(=O)[nH]1 (stereo unspecified)
A. 62.6

Q. What value of IC50 has been recorded for this entry: O=C1OC(c2n[nH]c(=O)o2)CN1c1cccc(OCc2ccccc2)c1 (stereo unspecified)
A. 20.7

Q. What value of IC50 has been recorded for this entry: CCc1ccccc1N1CC(c2n[nH]c(=O)o2)OC1=O (stereo unspecified)
A. 102

Q. What value of IC50 has been recorded for this entry: CCc1cccc(N2CC(Cc3n[nH]c(=O)o3)OC2=O)c1 (stereo unspecified)
A. 22.1

[I] Cc1cc(C)cc(NCC(O)c2n[nH]c(=O)[nH]2)c1 (stereo unspecified)
[II] CC(C)c1ccc(NCC(O)c2n[nH]c(=O)[nH]2)cc1 (stereo unspecified)
Q. Please state the entry with greater IC50 among I and II . To answer, give the label that identifies your chosen option.
A. II

[1] Cc1cc(C)cc(N2CC(Cc3n[nH]c(=O)o3)OC2=O)c1 (stereo unspecified)
[2] CCc1ccc(NCC(O)c2n[nH]c(=O)[nH]2)cc1 (stereo unspecified)
Q. Given the listed items, does 1 or 2 have the lesser reported IC50? To answer, give the label that identifies your chosen option.
A. 1

[a] COc1cccc(N2CC(c3n[nH]c(=O)o3)OC2=O)c1 (stereo unspecified)
[b] O=C1OC(Cc2n[nH]c(=O)o2)CN1c1ccc(OCc2ccccc2)cc1 (stereo unspecified)
[c] O=C1OC(Cc2n[nH]c(=O)o2)CN1c1ccccc1OCc1ccccc1 (stereo unspecified)
[d] CCc1ccc(N2CC(c3n[nH]c(=O)o3)OC2=O)cc1 (stereo unspecified)
Q. Task field, ranking: reported IC50, descending order. Give your ranking as a list of the labels in the requested order.
A. d, a, b, c

[I] CC(C)(C)c1ccc(NCC(O)c2n[nH]c(=O)[nH]2)cc1 (stereo unspecified)
[II] Cc1ccccc1NCC(O)c1n[nH]c(=O)[nH]1 (stereo unspecified)
[III] O=C1OC(Cc2n[nH]c(=O)o2)CN1c1ccccc1 (stereo unspecified)
Q. List by increasing IC50. Give your ranking as a list of the labels in the requested order.
A. I, III, II
